Tested on: 253994-281-T-J1-PDC KRAS-mutant spheroids with HUVEC/MSC, viability;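 also: spheroids exposed to agents for seven days before readout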
assay: Anticancer human tumor 253994-281-T-J1-PDC patient-derived colorectal carcinoma cell line growth inhibition [KRAS2]
conditions: curve of first compound; second compound 0.316 µM
readout type: IC50

Incoming: Query IC50 for CC1COCCN1c1cc(-c2ccnn2C)c2ccnc(-c3ccn[nH]3)c2n1 (stereo not drawn) + CNCc1ccccc1-c1csc(C(C)Nc2nc(C)nc3cc(OC)c(OC)cc23)c1
Outgoing: > 3.16 µM

Incoming: Query IC50 for O=C(c1cc(Cc2n[nH]c(=O)c3ccccc23)ccc1F)N1CCN(C(=O)C2CC2)CC1 + CC1OCC2(CCN(c3cnc(Sc4ccnc(N)c4Cl)c(N)n3)CC2)C1N
Outgoing: > 10 µM

Incoming: Query IC50 for O=C(c1cc(Cc2n[nH]c(=O)c3ccccc23)ccc1F)N1CCN(C(=O)C2CC2)CC1 + C=CC(=O)N1CCN(c2nc(OCC3CCCN3C)nc3c2CCN(c2cccc4cccc(C)c24)C3)CC1CC#N
Outgoing: > 10 µM
